# Organism: Cavia porcellus
# EXPERIMENT: Inhibitory activity to reduce the spontaneous beating of isolated guinea-pig atria in a concentration-dependent manner at the dose of 3 uM
# Format: functional
Could you please report measured inhibition at 3 µM for the items listed next?
Answers are plain numbers, in %.

STRUCTURE NOTATION: COc1cc2c(cc1OC)CC(=O)N(CCCNCCc1ccc(Cl)cc1)C=C2
inhibition at 3 µM / %: 60

Can you give me inhibition at 3 µM for all of these, one by one?
1. C=CCN(CCCN1C=Cc2cc(OC)c(OC)cc2CC1=O)CCOc1ccccc1
2. C=CCN(CCCN1C=Cc2cc(OC)c(OC)cc2CC1=O)CCc1ccc(OC)c(OC)c1
3. COc1ccc(CCN(CCCN2C=Cc3cc(OC)c(OC)cc3CC2=O)Cc2ccccc2)cc1OC
4. C=CCN(CCCc1ccccc1)CCCN1C=Cc2cc(OC)c(OC)cc2CC1=O
5. COc1cc2c(cc1OC)CC(=O)N(CCCNCCOc1ccccc1)C=C2
6. COc1ccc(CCNCCCN2CCc3cc(OC)c(OC)cc3CC2=O)cc1OC

1: 42; 2: 34; 3: 25; 4: 44; 5: 53; 6: 40

# per-item lookup of inhibition at 3 µM; items listed below
1. C=CCN(CCCN1C=Cc2cc(OC)c(OC)cc2CC1=O)CCc1ccc(Cl)cc1
2. C=CCN(CCCN1C=Cc2cc(OC)c(OC)cc2CC1=O)CCc1ccc(OC)cc1
3. COc1cc2c(cc1OC)CC(=O)N(CCCNCCCCc1ccccc1)C=C2
4. COc1cc2c(cc1OC)CC(=O)N(CCCNCCc1ccccc1)C=C2
5. COc1cc2c(cc1OC)CC(=O)N(CCCNCCCc1ccccc1)C=C2
6. C=CCN(CCCCc1ccccc1)CCCN1C=Cc2cc(OC)c(OC)cc2CC1=O

31
80
43
60
31
54

For every item below, please supply its inhibition at 3 µM.
1. COc1ccc(CCNCCCN2C=Cc3cc(OC)c(OC)cc3CC2=O)cc1
2. COc1ccc(CCNCCCN2C=Cc3cc(OC)c(OC)cc3CC2=O)cc1OC
3. C=CCN(CCCN1C=Cc2cc(OC)c(OC)cc2CC1=O)CCc1ccccc1

1. 60
2. 59
3. 53
